# targetUnderTest: UniProt:P30411
# Sequence (P30411 whole entry): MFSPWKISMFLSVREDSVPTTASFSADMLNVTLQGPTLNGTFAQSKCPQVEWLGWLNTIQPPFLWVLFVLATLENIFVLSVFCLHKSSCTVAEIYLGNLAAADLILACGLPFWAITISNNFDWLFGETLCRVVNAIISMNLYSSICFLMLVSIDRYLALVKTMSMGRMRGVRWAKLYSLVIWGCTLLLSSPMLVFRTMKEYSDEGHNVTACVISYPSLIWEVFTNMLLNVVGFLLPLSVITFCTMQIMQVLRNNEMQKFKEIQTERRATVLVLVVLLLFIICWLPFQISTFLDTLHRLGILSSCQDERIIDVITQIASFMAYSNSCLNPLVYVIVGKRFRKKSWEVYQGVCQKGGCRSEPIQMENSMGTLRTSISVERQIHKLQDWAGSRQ
testReadout: AC50

• CC(C(=O)O)c1ccc(N2CC=CC2)c(Cl)c1 (stereo not drawn) = > 30 µM
• O=C(CCCCC(=O)Nc1c(I)cc(I)c(C(=O)O)c1I)Nc1c(I)cc(I)c(C(=O)O)c1I [IODIPAMIDE] = > 10 µM
• O=C1NCCN1CCN1CCC(c2cn(-c3ccc(F)cc3)c3ccc(Cl)cc23)CC1 = > 30 µM

---

Observed AC50 for Sodium-dependent serotonin transporter (Homo sapiens), reported per entry below.
testReadout: AC50

• COC(=O)C1=C(C)NC(C)=C(C(=O)OC(C)C)C1c1cccc2nonc12 (stereo not given) = > 30 µM
• NS(=O)(=O)c1cc(-c2nnn[nH]2)c(NCc2cccs2)cc1Cl [AZOSEMIDE] = > 30 µM
• C[N+](C)(C)CC(=O)O = > 30 µM
• Cc1ccc(C(=O)c2cc(O)c(O)c([N+](=O)[O-])c2)cc1 = > 30 µM
• O=C(O)CCCc1ccccc1 = > 10 µM

---

# targetUnderTest: Thromboxane A2 receptor (Homo sapiens, UniProt P21731); also: assay procedure not described here
# Sequence (P21731 whole entry): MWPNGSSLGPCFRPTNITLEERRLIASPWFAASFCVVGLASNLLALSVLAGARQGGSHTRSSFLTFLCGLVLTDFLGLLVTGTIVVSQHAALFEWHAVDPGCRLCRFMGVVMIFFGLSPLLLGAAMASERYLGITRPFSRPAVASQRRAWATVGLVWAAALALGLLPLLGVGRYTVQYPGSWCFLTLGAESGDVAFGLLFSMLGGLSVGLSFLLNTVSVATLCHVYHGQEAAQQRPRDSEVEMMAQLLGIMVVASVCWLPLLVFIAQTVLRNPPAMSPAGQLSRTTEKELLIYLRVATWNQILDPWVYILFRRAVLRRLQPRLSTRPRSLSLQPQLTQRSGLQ
testReadout: AC50

- O=C(O)c1cccc(-c2noc(-c3ccccc3F)n2)c1: > 30 µM
- C#C[C@]1(O)CC[C@H]2[C@@H]3CCc4cc(O)ccc4[C@H]3CC[C@@]21C: 15 µM
- CC(C)(N)Cc1ccc(Cl)cc1: > 30 µM
- NS(=O)(=O)c1cc2c(cc1Cl)NCNS2(=O)=O [HYDROCHLOROTHIAZIDE]: > 30 µM
- N[C@@H](CSCC(=O)O)C(=O)O: > 30 µM
- O=C(O)CCn1c2c(c3ccccc31)C[C@H](NS(=O)(=O)c1ccc(F)cc1)CC2: 0.0311 µM
- CCCCCN(C)CCC(O)(P(=O)(O)O)P(=O)(O)O: > 30 µM
- C=C1C[C@@H]2[C@H](CC[C@]3(C)C(=O)CC[C@@H]23)[C@@]2(C)C=CC(=O)C=C12: > 30 µM
- C1COC(NC(C2CC2)C2CC2)=N1: > 30 µM
- O=C(O)Cc1cn(-c2ccccc2)nc1-c1ccc(Cl)cc1: > 30 µM
- CC(C(=O)O)c1ccc(C(=O)c2cccs2)cc1 (configuration not stated): > 10 µM
- O=C(CCCCC(=O)Nc1c(I)cc(I)c(C(=O)O)c1I)Nc1c(I)cc(I)c(C(=O)O)c1I [IODIPAMIDE]: > 10 µM

---

# targetUnderTest: D(1A) dopamine receptor (Homo sapiens, UniProt P21728); also: assay procedure not described here
# Sequence (P21728 whole entry): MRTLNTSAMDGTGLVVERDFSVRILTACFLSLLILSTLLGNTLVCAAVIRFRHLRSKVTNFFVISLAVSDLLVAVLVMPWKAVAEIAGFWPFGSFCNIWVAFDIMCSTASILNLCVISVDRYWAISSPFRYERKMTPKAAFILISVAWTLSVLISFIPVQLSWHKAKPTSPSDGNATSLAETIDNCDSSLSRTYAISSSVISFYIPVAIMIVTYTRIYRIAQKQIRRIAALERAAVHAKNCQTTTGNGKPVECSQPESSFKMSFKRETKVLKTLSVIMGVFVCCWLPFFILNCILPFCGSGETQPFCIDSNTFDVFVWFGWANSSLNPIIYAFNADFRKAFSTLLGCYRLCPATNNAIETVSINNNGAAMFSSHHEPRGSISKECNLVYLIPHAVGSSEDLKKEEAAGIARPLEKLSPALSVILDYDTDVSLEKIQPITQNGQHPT
# Type: functional, cell-based
Each entry below carries its reported AC50.
testReadout: AC50

• CC[C@H](C)C(=O)O[C@H]1C[C@H](O)C=C2C=C[C@H](C)[C@H](CC[C@@H](O)C[C@@H](O)CC(=O)O)[C@H]21 = > 30 µM
• COc1ccc2c(c1)C(=O)N(CCc1ccc(S(=O)(=O)NC(=O)NC3CCCCC3)cc1)C(=O)C2(C)C = > 30 µM
• N/N=c1/cc2c(n[nH]1)CCN(C(=O)c1ccccc1)C2 = > 30 µM
• CN1CC[C@]23CCCC[C@H]2[C@H]1Cc1ccc(O)cc13 = > 30 µM
• O=C(O)CCn1c2c(c3ccccc31)C[C@H](NS(=O)(=O)c1ccc(F)cc1)CC2 = > 30 µM
• Nc1nc2ccc(OC(F)(F)F)cc2s1 = > 30 µM
• C=C1C[C@@H]2[C@H](CC[C@]3(C)C(=O)CC[C@@H]23)[C@@]2(C)C=CC(=O)C=C12 = > 10 µM
• OCCN1CCN(CCCN2c3ccccc3C=Cc3ccccc32)CC1 = > 30 µM
• CN1C(=O)CC(C)(c2ccccc2)C1=O (stereo not drawn) [METHSUXIMIDE] = > 30 µM
• COC(=O)[C@@H]1CC2=CC(=O)CC[C@]2(C)[C@@]23O[C@@H]2C[C@@]2(C)[C@@H](CC[C@@]24CCC(=O)O4)[C@H]13 = > 30 µM
• COC(=O)C1=C(C)NC(C)=C(C(=O)OC(C)C)C1c1cccc2nonc12 (stereo not drawn) = > 30 µM
• O=C(O)c1cc(-c2ccc(F)cc2F)ccc1O = > 30 µM
• C#CCN(C)[C@H](C)Cc1ccccc1 = > 10 µM
• CCCCOc1cc(C(=O)NCCN(CC)CC)c2ccccc2n1 = > 10 µM
• CN1CCCN=C1COC(=O)C(O)(c1ccccc1)C1CCCCC1 (stereo not drawn) = > 10 µM
• CC(Cc1ccccc1)NCCC(c1ccccc1)c1ccccc1 (stereo not drawn) = > 30 µM
• CN[C@@H]1[C@H](O)[C@H](NC)[C@H]2O[C@@]3(O)C(=O)C[C@@H](C)O[C@H]3O[C@@H]2[C@H]1O = > 10 µM
• N[C@@H](CSCC(=O)O)C(=O)O = > 30 µM
• CCN(CC)CCOC(=O)c1ccc(N)cc1 = > 10 µM
• CN1C(=O)N(C)C2C1N(C)C(=O)N2C (stereo not drawn) = > 30 µM
• CCOc1cc(N)c([N+](=O)[O-])cc1C(=O)NC1CCN(CC2CC=CCC2)CC1 (stereo not drawn) [CINITAPRIDE] = > 30 µM
• COc1ccccc1OCC(O)COC(N)=O (stereo not drawn) = > 10 µM
• CC1=CC(=O)c2ccccc2C1=O = > 10 µM
• CC(C)(Oc1ccc(C2CC2(Cl)Cl)cc1)C(=O)O (stereo not drawn) [CIPROFIBRATE] = > 30 µM
• Cc1ccc(-c2nc3ccc(C)cn3c2CC(=O)N(C)C)cc1 = > 30 µM
• O=C(Nc1ccccc1)OCC(CN1CCCCC1)OC(=O)Nc1ccccc1 (stereo not drawn) = > 10 µM
• CN(C)CCCN1c2ccccc2Sc2ccccc21 = > 10 µM
• C#C[C@]1(O)CC[C@H]2[C@@H]3CCC4=CCCC[C@@H]4[C@H]3CC[C@@]21C = > 30 µM
• CC(C)NCC(O)COc1ccc(COCCOC(C)C)cc1 (stereo not drawn) = > 10 µM
• C#CCN[C@@H]1CCc2ccccc21 = > 30 µM
• CC(=O)NS(=O)(=O)c1ccc(N)cc1 [SULFACETAMIDE] = > 10 µM
• CO/N=C(\C(=O)N[C@@H]1C(=O)N2C(C(=O)OCOC(=O)C(C)(C)C)=C(C)CS[C@H]12)c1csc(N)n1 = > 30 µM
• C[C@@H]1O[C@@H]1P(=O)(O)O = > 10 µM

---

# targetUnderTest: UniProtKB P28223
# Sequence (P28223 whole entry): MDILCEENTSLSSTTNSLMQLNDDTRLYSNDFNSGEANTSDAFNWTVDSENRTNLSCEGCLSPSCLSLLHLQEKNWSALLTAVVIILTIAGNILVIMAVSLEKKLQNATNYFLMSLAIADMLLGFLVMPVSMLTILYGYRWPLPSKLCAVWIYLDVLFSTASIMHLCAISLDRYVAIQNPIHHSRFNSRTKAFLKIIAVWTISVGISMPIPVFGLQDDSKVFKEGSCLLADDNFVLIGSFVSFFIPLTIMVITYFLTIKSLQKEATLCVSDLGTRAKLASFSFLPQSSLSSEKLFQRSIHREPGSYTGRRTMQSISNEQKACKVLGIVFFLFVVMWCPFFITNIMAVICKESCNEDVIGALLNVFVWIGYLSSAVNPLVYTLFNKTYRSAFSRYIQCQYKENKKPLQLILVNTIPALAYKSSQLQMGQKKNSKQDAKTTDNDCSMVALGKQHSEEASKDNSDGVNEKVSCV
# Type: functional, cell-based
testReadout: AC50

* CN1CCN(C(=O)OC2c3nccnc3C(=O)N2c2ccc(Cl)cn2)CC1 (centres undefined) | > 30 µM
* COCC1=C(C(=O)OC(C)OC(=O)OC(C)C)N2C(=O)[C@@H](NC(=O)/C(=N\OC)c3csc(N)n3)[C@H]2SC1 (some centres undefined) | > 30 µM
* CC(=O)NS(=O)(=O)c1ccc(N)cc1 [SULFACETAMIDE] | > 10 µM
* CC(C(O)c1ccc(O)cc1)N1CCC(Cc2ccccc2)CC1 (centres undefined) | 9.6 µM
* NS(=O)(=O)c1cc(Cl)c(Cl)c(S(N)(=O)=O)c1 [DICHLORPHENAMIDE] | > 10 µM
* NS(=O)(=O)c1cc(-c2nnn[nH]2)c(NCc2cccs2)cc1Cl [AZOSEMIDE] | > 30 µM
* Cc1nc2ccc(CN(C)c3ccc(C(=O)N[C@@H](CCC(=O)O)C(=O)O)s3)cc2c(=O)[nH]1 | > 30 µM
* C[C@H]1C[C@@H]2[C@H]([C@@H](O)C[C@@]3(C)[C@H]2CC[C@]3(O)C(=O)COC(=O)CCC(=O)O)[C@@]2(C)C=CC(=O)C=C12 [METHYLPREDNISOLONE HEMISUCCINATE] | > 30 µM
* CC(C)[N+](C)(CCC(C(N)=O)(c1ccccc1)c1ccccc1)C(C)C [ISOPROPAMIDE] | > 10 µM
* O=C1CN=C(c2ccccc2)c2cc(Cl)ccc2N1CC(F)(F)F | > 30 µM
* CN1C(=O)CC(=O)N(c2ccccc2)c2cc(Cl)ccc21 | > 10 µM
* CN1C(=O)CC(C)(c2ccccc2)C1=O (centres undefined) [METHSUXIMIDE] | > 10 µM
* COC(=O)[C@@H]1CC2=CC(=O)CC[C@]2(C)[C@@]23O[C@@H]2C[C@@]2(C)[C@@H](CC[C@@]24CCC(=O)O4)[C@H]13 | > 30 µM
* CC(C)C(=O)OCC(=O)[C@@]12O[C@H](C3CCCCC3)O[C@@H]1C[C@H]1[C@@H]3CCC4=CC(=O)C=C[C@]4(C)[C@H]3[C@@H](O)C[C@@]12C [CICLESONIDE] | > 10 µM

FYI, the data here is from ChEMBL document CHEMBL5291721.
